testDetails: Pharmacokinetic clearance in intravenously dosed rats
Format: in vivo
cond: male, Sprague-Dawley, rat, whole blood, iv, 0.5 mg/kg, i.v. 0.5 mg/kg, Discrete - A (10% propylene glycol, 1 eq NaOH, 25% of 20% Solutol HS15, PBS)
quantityMeasured: clearance

Q: Quick check: clearance of CCc1cc(C[C@H]2CCc3cccc(-c4cccc(-n5ncc(C(=O)O)c5OC)c4)c32)ccc1C1CCN(C(=O)C2CC2)CC1 ?
Ans: > 100 mL/min/kg

* * *

assayTarget: soluble guanylate cyclase (GUCYA3/GUCYB3) overexpressed in CHO cells (Homo sapiens, UniProt Q02108+Q02153)
Construct: expressed in transfected cells
Sequence (Q02108 1-690 partner): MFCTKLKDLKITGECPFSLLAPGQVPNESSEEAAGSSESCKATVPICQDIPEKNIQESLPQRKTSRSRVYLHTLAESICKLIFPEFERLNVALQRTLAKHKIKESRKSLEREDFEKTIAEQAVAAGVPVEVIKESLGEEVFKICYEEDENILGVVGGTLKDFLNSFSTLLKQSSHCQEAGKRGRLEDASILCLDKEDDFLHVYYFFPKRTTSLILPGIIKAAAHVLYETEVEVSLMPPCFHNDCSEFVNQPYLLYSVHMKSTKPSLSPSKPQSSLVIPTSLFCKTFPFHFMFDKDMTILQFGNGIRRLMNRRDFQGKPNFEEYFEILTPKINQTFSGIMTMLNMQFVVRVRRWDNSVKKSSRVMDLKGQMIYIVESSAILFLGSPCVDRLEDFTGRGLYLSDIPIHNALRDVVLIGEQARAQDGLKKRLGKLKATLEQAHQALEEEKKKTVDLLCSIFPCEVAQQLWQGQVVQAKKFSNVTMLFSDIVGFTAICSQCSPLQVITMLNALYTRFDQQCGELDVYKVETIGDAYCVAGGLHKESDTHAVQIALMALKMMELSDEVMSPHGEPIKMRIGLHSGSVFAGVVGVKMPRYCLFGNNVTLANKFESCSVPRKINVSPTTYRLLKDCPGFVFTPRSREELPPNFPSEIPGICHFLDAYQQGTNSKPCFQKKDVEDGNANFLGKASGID
Sequence (Q02153 1-619): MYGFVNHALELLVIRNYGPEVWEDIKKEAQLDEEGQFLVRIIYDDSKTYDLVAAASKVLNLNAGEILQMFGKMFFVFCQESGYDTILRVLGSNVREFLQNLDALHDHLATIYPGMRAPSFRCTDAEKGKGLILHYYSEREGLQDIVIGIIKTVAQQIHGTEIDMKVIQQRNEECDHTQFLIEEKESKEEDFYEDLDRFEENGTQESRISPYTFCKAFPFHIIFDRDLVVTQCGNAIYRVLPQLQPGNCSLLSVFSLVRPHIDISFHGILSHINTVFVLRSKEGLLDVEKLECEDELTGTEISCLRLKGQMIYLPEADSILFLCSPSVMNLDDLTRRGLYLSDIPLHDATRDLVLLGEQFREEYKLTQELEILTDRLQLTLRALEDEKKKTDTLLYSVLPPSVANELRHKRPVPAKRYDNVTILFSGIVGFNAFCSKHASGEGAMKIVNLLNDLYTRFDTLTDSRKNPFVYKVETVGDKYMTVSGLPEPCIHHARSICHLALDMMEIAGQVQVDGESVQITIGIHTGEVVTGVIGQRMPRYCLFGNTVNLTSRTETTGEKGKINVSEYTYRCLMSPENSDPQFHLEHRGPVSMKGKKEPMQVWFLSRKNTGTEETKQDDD
testDetails: CHO cellular assay (cGMP production, HTRF)
Type: cell-based
cond: CHO GUCY clone 8E10; assay buffer with 1 mM IBMX, 20 uM ODQ; 1 h at room temperature; cGMP HTRF; quantification limit 0.0005 μM; read-out: Mean EC50
Method: Chinese hamster ovary (CHO) cells overexpressing soluble guanylate cyclase were generated to test the effect of sGC activators in a cellular context. Human cDNAs for GUCYA3 (RefSeq: NM_000856.3) and GUCYB3 (RefSeq: NM_000857.1) were amplified by PCR from a HUVEC (Human Umbilical Vein Endothelial Cells) cDNA library and cloned into mammalian expression vectors. […] The EC50s are calculated based on the amount of cGMP interpolated from the standard curve, using a 4-parameter sigmoidal dose-response. […]
Mark t only for EC50 values smaller than 4 nM; exact matches and larger values are f.

>  <molecule>
CCc1nc(NC2CCc3cccc(-c4cccc(-n5ncc(C(=O)O)c5OC)n4)c32)ccc1C1=CCN(C(=O)[C@H](C)O)CC1 (single isomer, unassigned) [Example 17B]

>  <classLabel>
t

$$$$
>  <molecule>
CCc1cc(O[C@H]2CCc3cccc(-c4cccc(-n5ncc(C(=O)O)c5N)n4)c32)ccc1C1CCN(C(=O)C2CC2)CC1

>  <classLabel>
t

$$$$
>  <molecule>
CCc1cc(NC2CCc3cccc(-c4ccc(OC)c(-n5ncc(C(=O)O)c5OC)c4)c32)ccc1C1CCN(C(=O)C2CC2)CC1 (single isomer, unassigned; (-)) [Example 8B]

>  <classLabel>
f

$$$$
>  <molecule>
CCc1nc(NC2CCc3cccc(-c4cccc(-n5ncc(C(=O)O)c5OC)c4)c32)ccc1C1=CCN(C(=O)C2CC2)CC1 (single isomer, unassigned; (+)) [Example 10A]

>  <classLabel>
t

$$$$
>  <molecule>
CCc1cc(C[C@H]2CCc3cccc(-c4cccc(-n5ncc(C(=O)O)c5N)n4)c32)ccc1C1CCN(C(=O)C2CC2)CC1

>  <classLabel>
t

$$$$

Q: Threshold test, EC50 < 4 nM: CCc1cc(NC2CCc3cccc(-c4ccc(C)c(-n5ncc(C(=O)O)c5OC)c4)c32)ccc1C1CCN(C(=O)C2CC2)CC1 (single isomer, unassigned; (-)) [Example 7B]
Ans: t

Q: Threshold test, EC50 < 4 nM: CCc1cc(NC2CCc3cccc(-c4ccc(OC)c(-n5ncc(C(=O)O)c5OC)c4)c32)ccc1C1CCN(C(=O)C2CC2)CC1 (single isomer, unassigned; (+)) [Example 8A]
Ans: t

Q: Threshold test, EC50 < 4 nM: CCc1cc(O[C@H]2CCc3cccc(-c4cccc(-n5ncc(C(=O)O)c5OC)c4)c32)ccc1C1CCN(C(=O)[C@H](C)O)CC1
Ans: t

Q: Threshold test, EC50 < 4 nM: CCc1cc(C[C@H]2CCc3cccc(-c4cccc(-n5ncc(C(=O)O)c5OC)c4)c32)ccc1C1CCN(C(=O)C2CC2)CC1
Ans: t

Q: Threshold test, EC50 < 4 nM: CCc1cc(NC2CCc3cccc(-c4cccc(-n5ncc(C(=O)O)c5OC)c4)c32)ccc1C1CCN(C(=O)[C@H](C)O)CC1 (single isomer, unassigned; (+)) [Example 4A]
Ans: t

Q: Threshold test, EC50 < 4 nM: CCc1nc(NC2CCc3cccc(-c4cccc(-n5ncc(C(=O)O)c5OC)c4)c32)ccc1C1=CCN(C(=O)C2CC2)CC1 (single isomer, unassigned; (-)) [Example 10B]
Ans: f

Q: Threshold test, EC50 < 4 nM: CCc1nc(NC2CCc3cccc(-c4cccc(-n5ncc(C(=O)O)c5OC)c4)c32)ccc1C1=CCN(C(=O)[C@H](C)O)CC1 (single isomer, unassigned) [Example 11B]
Ans: t

Q: Threshold test, EC50 < 4 nM: CCc1cc(O[C@H]2CCc3cccc(-c4cccc(-n5ncc(C(=O)O)c5OC)n4)c32)ccc1C1CCN(C(=O)[C@H](C)O)CC1
Ans: t
